# Test description: GFP drop in mixed WT/humanized-ribosome E. coli culture – GFP/RFP fluorescence, OD600, single point, bacterial rRNA inhibitor project, primary screen (AID 720706)
# Measurement context: E. coli WT GFP vs humanized-ribosome RFP mutants, 24 h; measured here: RFP humanized mutant strains, DMSO median 0, no signal -100, concentration not given here
Out of some 350,000 compounds screened, about 5,500 (1.6%) were called active. The sample holds actives, similar compounds and a random draw of the others, so the mix is not that of the screen.
Observable: RFP signal change (%)

INSERT INTO results (compound, quantity_unit, measured_number) VALUES
  ('CC(=O)N(C)C[C@@H]1Oc2ccc(NC(=O)NC(C)C)cc2C(=O)N(C)C[C@H]1C', '%', -0.644),
  ('CCOCCCNC(=O)C1(O)c2cc(Br)ccc2NC(=O)N1c1ccc(C)c(C)c1 (stereo not drawn)', '%', 0.676),
  ('Cc1ccc(S(=O)(=O)Nc2ccc3c(c2)C(=O)N([C@@H](C)CO)C[C@@H](C)[C@@H](CN(C)Cc2ccc(C(=O)Nc4ccccc4N)cc2)O3)cc1', '%', 14),
  ('CCCC#Cc1ccc([C@H]2[C@H]3CN(C(=O)Nc4cc(F)ccc4F)CC(=O)N3[C@H]2CO)cc1', '%', 11.1),
  ('O=C(/C=C/c1ccc(Cl)c([N+](=O)[O-])c1)c1ccc(O)cc1', '%', 9.14),
  ('COc1ccc(NC(=O)N(C)C[C@@H]2OCCCC[C@@H](C)Oc3ccc(NS(C)(=O)=O)cc3C(=O)N([C@@H](C)CO)C[C@H]2C)cc1', '%', 0.0065),
  ('Cc1cccc(N2C(=O)SC(N(CC(=O)O)c3cccc(C)c3)C2=O)c1 (stereo not drawn)', '%', 2.75),
  ('CNC(=O)c1cccc2nc3ccccc3nc12', '%', -6.61),
  ('COc1ccc(-c2cc(=O)oc3cc(OC(C)C(=O)Nc4ccc(CN5CCOCC5)cc4)ccc23)cc1 (stereo not drawn)', '%', 3.54),
  ('COc1ccc(OC)c(/C=C/C(=O)c2ccc3c(c2)OCO3)c1', '%', -8.02),
  ('CCOc1ccc(/C(O)=C2\C(=O)C(=O)N(c3ccc(OC)cc3)C2c2ccccc2[N+](=O)[O-])cc1 (stereo not drawn)', '%', 5.06),
  ('CCCNC(=O)N1CC2(C1)[C@H](c1ccccc1)[C@@H](CO)N2C(=O)C1CC1', '%', -0.981),
  ('CC(=O)Nc1ccc(C=CC(=O)c2ccc([N+](=O)[O-])cc2)cc1', '%', -0.138),
  ('O=C(/C=C/c1ccc(Cl)cc1)N1CCN(c2ccccc2[N+](=O)[O-])CC1', '%', -26.6),
  ('COc1ccc(NC(=O)N(C)C[C@@H]2Oc3ccc(NS(=O)(=O)c4ccc(Cl)cc4)cc3C(=O)N([C@H](C)CO)C[C@@H]2C)cc1', '%', 4.46),
  ('Cc1ccc(CC2S/C(=C(/C#N)C(=O)N3CCOCC3)N(c3ccccc3)C2=O)cc1 (stereo not drawn)', '%', -0.528),
  ('COc1ccc2oc(=O)cc(CN3CCOCC3)c2c1', '%', 0.523),
  ('C[C@H](CO)N1C[C@H](C)[C@H](CN(C)Cc2ccc(C(=O)Nc3ccccc3N)cc2)Oc2ccc(NS(C)(=O)=O)cc2C1=O', '%', 0.92);

###

# Test description: GFP drop in mixed WT/humanized-ribosome E. coli culture – GFP/RFP fluorescence, OD600, single point, bacterial rRNA inhibitor project, primary screen (AID 720706)
# Measurement context: E. coli WT GFP vs humanized-ribosome RFP mutants, 24 h; stronger effect = lower value, DMSO median 0, no signal -100
In all, about 350,000 compounds went through this assay and about 5,500 (1.6%) were called active. For the sample, actives were picked, then their nearest neighbours and some compounds at random.
Property: GFP signal change (wild-type ribosome); scope: individual molecules
Observable: GFP signal change (wild-type ribosome) (%)

INSERT INTO measurements (molecule, quantity_unit, measured_number) VALUES
  ('C[C@@H]1CN([C@H](C)CO)S(=O)(=O)c2ccc(C#CC(C)(C)O)cc2O[C@@H]1CN(C)Cc1ccccc1', '%', 1.3),
  ('Cc1nn(C(C)(C)C)c(OC(=O)CC(C)C)c1S(=O)(=O)c1ccccc1', '%', -21.5),
  ('CN(C)C(=O)c1ccc(-c2ccc(C3[C@@H]4CN(S(=O)(=O)c5cccc(Cl)c5)C[C@H]3N4)cc2)cc1 (stereo not given in full)', '%', -4.17),
  ('Cc1nc2nc[nH]n2c(=O)c1C/C=C/c1ccccc1', '%', -22.4),
  ('CC(CC(=O)N1CCN(S(=O)(=O)c2ccccc2)CC1)n1cncn1 (stereo not given)', '%', 5.03);

###

Property: RFP signal change; scope: individual compounds
# Test description: GFP drop in mixed WT/humanized-ribosome E. coli culture – GFP/RFP fluorescence, OD600, single point, bacterial rRNA inhibitor project, primary screen (AID 720706)
# Measurement context: E. coli WT GFP vs humanized-ribosome RFP mutants, 24 h; measured here: RFP humanized mutant strains, DMSO median 0, no signal -100, concentration not given here
Among all 350,000 compounds or so, about 5,500 (1.6%) were called active. What follows is part of a selection rich in actives, with near analogues and random picks from the rest.
Observable: RFP signal change (%)

INSERT INTO results (query_smiles, quantity_unit, measured_number) VALUES
  ('C[C@@H]1CN([C@@H](C)CO)S(=O)(=O)c2ccc(/C=C/c3ccccc3)cc2O[C@@H]1CN(C)C(=O)Nc1cc(F)ccc1F', '%', -0.095),
  ('COc1ccccc1C#Cc1ccc2c(c1)O[C@@H](CN(C)Cc1cncnc1)[C@H](C)CN([C@@H](C)CO)S2(=O)=O', '%', 10),
  ('COc1ccc(CNC(=O)/C(C#N)=C/c2cccc(OC)c2OC)cc1', '%', 1.12),
  ('COCCNC(=O)/C(C#N)=C/c1nc(N(C)C)n(-c2ccc(F)cc2)c1Cl', '%', 2.57),
  ('Cc1noc(C)c1NC(=O)N(C)C[C@@H]1Oc2ccc(NC(=O)Nc3ccc(F)cc3)cc2C(=O)N([C@H](C)CO)C[C@@H]1C', '%', -0.103),
  ('C[C@H]1CN([C@@H](C)CO)C(=O)c2cccc(NC(=O)c3ccncc3)c2O[C@@H]1CN(C)C', '%', -0.879),
  ('C[C@H]1CN([C@@H](C)CO)C(=O)Cc2cc(NC(=O)Cc3ccccc3)ccc2O[C@H]1CN(C)S(=O)(=O)c1ccc(Cl)cc1', '%', -2.09),
  ('Cc1noc(C)c1NC(=O)Nc1ccc2c(c1)C(=O)N([C@H](C)CO)C[C@@H](C)[C@H](CN(C)Cc1ccncc1)O2', '%', -0.035);

###

Property: OD600 change; scope: individual compounds
# Test description: GFP drop in mixed WT/humanized-ribosome E. coli culture – GFP/RFP fluorescence, OD600, single point, bacterial rRNA inhibitor project, primary screen (AID 720706)
# Measurement context: E. coli WT GFP vs humanized-ribosome RFP mutants, 24 h; measured here: OD600 growth, DMSO median 0, no signal -100
Out of some 350,000 compounds screened, about 5,500 (1.6%) were called active. For the sample, actives were picked, then their nearest neighbours and some compounds at random.
Observable: OD600 change (%)

INSERT INTO results (compound, quantity_unit, measured_number) VALUES
  ('CN1C(=O)c2cc(NC(=O)C3CCC3)ccc2OC[C@@H]2O[C@@H](CC(=O)NCCc3ccncc3)CC[C@H]21', '%', 10.1),
  ('Cc1noc(C)c1S(=O)(=O)N(C)C[C@@H]1OCCCC[C@H](C)Oc2ccc(NC(=O)CCC(F)(F)F)cc2C(=O)N([C@H](C)CO)C[C@H]1C', '%', 1.3),
  ('CC(NC(=O)c1ccccc1)C(=O)OCC(=O)Nc1cccc(S(=O)(=O)N2CCCC2)c1 (stereo unspecified)', '%', 4.84),
  ('CC(C)(C)OC(=O)N1CCC(C(=O)Nc2cccc(C(=O)NCCc3ccccc3)c2)CC1', '%', 6.05),
  ('FC(F)(F)Oc1ccc(NC(=S)NCc2ccccc2)cc1', '%', -77.1),
  ('O=C(Nc1ccccc1F)N[C@@H]1C=C[C@H](CC(=O)N2CCCCC2)O[C@@H]1CO', '%', 6.08),
  ('COc1cccc(NC(=O)Nc2ccc3c(c2)OC[C@@H](C)NC[C@@H](C)[C@H](OC)CN(C)C3=O)c1', '%', 0.1),
  ('CN(CC(=O)NCc1cccnc1)S(=O)(=O)c1cc(Cl)ccc1Cl', '%', -2.3),
  ('CNC(=O)c1cccc2nc3ccccc3nc12', '%', -17.7),
  ('CC(C)(C)C(=O)OCc1nc(-c2ccc(O)c(O)c2)cs1', '%', -12.7),
  ('CC1CC2=C(CC1/C=N/NC(N)=S)C(C)(C)CCC2 (stereo unspecified)', '%', 0.8),
  ('CC(C)(C)[S@](=O)N1Cc2cc(C(=O)N[C@@H]3CCN(Cc4ccccc4)C3)nc(-c3cccc(-c4ccncc4)c3)c2[C@@H]1CCO', '%', 9.43),
  ('COc1ccc(CN(C)C[C@H]2Oc3ccc(NS(=O)(=O)c4ccc(Cl)cc4)cc3CC(=O)N([C@@H](C)CO)C[C@H]2C)cc1', '%', -36.8),
  ('Cc1cc2c(cc1C)[n+](C)cn2CC(O)COCC1CC=CCC1 (stereo unspecified)', '%', -16.1),
  ('C[C@@H]1CCCCO[C@@H](CN(C)C(=O)Cc2ccccc2)[C@H](C)CN([C@H](C)CO)C(=O)c2cc(NC(=O)Cc3ccccc3)ccc2O1', '%', -13.8),
  ('Cc1ccc(S(=O)(=O)Nc2ccc3c(c2)C(=O)N([C@@H](C)CO)C[C@@H](C)[C@@H](CN(C)Cc2ccc(C(=O)Nc4ccccc4N)cc2)O3)cc1', '%', -1.98),
  ('COc1ccc(/C=C/C(=O)Nc2ccc(C34CC5CC(CC(O)(C5)C3)C4)cc2)cc1OC', '%', -9.24),
  ('COCCNc1nc(NCc2ccc(NC(C)=O)cc2)c2sccc2n1', '%', 15.7),
  ('CCNC(=O)[C@@H]1[C@@H](CO)[C@@H]2Cn3c(ccc(C4=CCCCC4)c3=O)[C@@H]2N1Cc1ccccc1F', '%', -2.39),
  ('Cc1ccc(S(=O)(=O)N(C)C[C@@H]2Oc3ccc(NC(=O)Cn4cnnn4)cc3CC(=O)N([C@H](C)CO)C[C@H]2C)cc1', '%', 0.458),
  ('COc1cccc(CCNC(=O)c2cccc(NC(=O)C3=C(C)OCCS3)c2)c1', '%', -16.5),
  ('Cc1ccc(C(=O)NCC(=O)OCC(=O)Nc2cccc(S(=O)(=O)N3CCCC3)c2)cc1C', '%', -2.78),
  ('O=C(NCc1ccccc1)c1cccc(NC(=O)C2CCCCC2)c1', '%', -22.2),
  ('C[C@H](NC(=O)N(C)C[C@@H]1OCc2ccccc2-c2ccccc2C(=O)N([C@H](C)CO)C[C@@H]1C)c1ccccc1', '%', 6),
  ('CC(=O)Nc1ccc(CNc2nc(NCCN(C)C)nc3cc(-c4ccccc4)sc23)cc1', '%', -5.3),
  ('Cc1cc(SCc2c(F)cccc2Cl)nc(=O)[nH]1', '%', 0.505),
  ('CCCN1[C@H](C(=O)N[C@H](C)c2ccccc2)[C@@H](CO)[C@@H]2Cn3c(ccc(-c4ccccc4)c3=O)[C@@H]21', '%', -37.1),
  ('Cc1ccc(O)c(NC(=S)NC(=O)COc2ccc(Br)cc2)c1', '%', -13.5),
  ('CCCNC(=O)N(C)C[C@H]1Oc2ncc(-c3ccc(C(=O)N(C)C)cc3)cc2C(=O)N([C@@H](C)CO)C[C@@H]1C', '%', 12.2),
  ('O=C(CCNC(=O)c1ccc(Br)cc1)Nc1cccc(S(=O)(=O)N2CCCCC2)c1', '%', -43.3),
  ('CC(C)NC(=O)N(C)C[C@H]1Oc2cc(-c3cncnc3)ccc2S(=O)(=O)N([C@@H](C)CO)C[C@H]1C', '%', 3.02),
  ('COc1ccc(C(C)(O)c2nc(-c3ccc(C)c(C)c3)cs2)cc1 (stereo unspecified)', '%', -43.5),
  ('CN(C)Cc1cn(CC[C@H]2CC[C@H](NS(=O)(=O)c3ccccc3)[C@@H](CO)O2)nn1', '%', 8.8),
  ('COc1cccc(/C=C/C(=O)Nc2ccc3c(c2)OCCO3)c1', '%', -2.39),
  ('Cn1cccc1C(=O)NNC(=O)COc1ccc(Br)cc1', '%', 4.13),
  ('CN(c1ccc(O)cc1)c1nc(-c2cccnc2)cs1', '%', -11.5);
